Test Summary: NOD1 signaling inhibitors, primary screen, cell-based, luminescence, uHTS (AID 1578);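 also: HEK-293T reporter cells stimulated with the NOD1 agonist gamma-tri-DAP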
Setup Conditions: NOD1-driven NF-kB luciferase reporter cells, at 4 µM, hits give high values
The whole screen tested about 290,000 compounds, of which about 3,000 (1%) were called active. Only a selection was taken, and actives are over-represented in it overall.
inhibition reference
Record the value in %, omitting the unit from your answer.

// known answers, use as guide
{"Compound": "CCC(C)(C(=O)NC1CCCCC1)N(C(=O)CNC(C)=O)c1c(C)n(C)n(-c2ccccc2)c1=O (stereo not drawn)", "Value Unit": "%", "inhibition": -13.9}
{"Compound": "Cc1nn(C(=O)c2ccco2)c(C)c1Sc1ccc([N+](=O)[O-])cc1", "Value Unit": "%", "inhibition": -7.1}
{"Compound": "O=C(/C=C\\Nc1ccccc1Br)c1ccc2c(c1)OCO2", "Value Unit": "%", "inhibition": 59.6}
{"Compound": "O=C(/C=C\\Nc1ccc2c(c1)OCO2)c1cccs1", "Value Unit": "%", "inhibition": -64.5}
{"Compound": "O=c1[nH]c2ccc(NC(=S)NC3CCCCC3)cc2[nH]1", "Value Unit": "%", "inhibition": 0.4}
{"Compound": "Cc1cccc(C(=O)NC(=S)NCc2cccnc2)c1", "Value Unit": "%", "inhibition": -31.1}

Data point: COc1ccc(-c2cnnc(N/N=C/c3ccc(O)cc3)n2)cc1 ; inhibition = -15.9

The reported value for CCN(CC)S(=O)(=O)c1ccc(S(=O)(=O)N2CCN(C(=O)c3ccco3)CC2)cc1 in terms of inhibition is -3.5

The recorded inhibition for O=C(Nc1cccc(Cl)c1)Nc1nnc(CSCCOc2ccc(Cl)cc2)s1 is 67.8

Quick note, inhibition for CN(c1ccccc1)S(=O)(=O)c1ccc(Cl)c(C(=O)Nc2nc3ccccc3[nH]2)c1 landed at 3.8

Consider CCCc1cc(=O)n2[nH]c(NC(=O)c3ccco3)nc2n1 . Its measured inhibition is 1.1

Recorded result, COc1cccc(/C=N/N2CCN(C3c4ccccc4-c4ccccc43)CC2)c1O , inhibition: -6.4

Record O=C(/C=C/c1ccccc1)c1ccccn1 . Reported inhibition: -15.9

Measured inhibition, O=c1cc(N2CCN(c3ccccc3)CC2)[nH]c(=O)n1-c1ccccc1 : -19.3

For Cc1ccc(C(=O)N/N=C(/CC(=O)c2cccs2)C(F)(F)F)cc1 the compound record lists inhibition as 70

The value of inhibition measured for the compound Oc1ccc(/C=N\Nc2nncc(-c3ccccc3)n2)cc1 turned out to be 59.3

Cc1c(OCC(=O)NCCCn2ccnc2)ccc2c3c(c(=O)oc12)CCC3 has a reported inhibition of -17.1

Notebook: CCC(CC)c1nc(NCCC(=O)O)c2ccccc2n1 , inhibition read as -13.4

----------
Test Summary: NOD1 signaling inhibitors, primary screen, cell-based, luminescence, uHTS (AID 1578);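 also: HEK-293T reporter cells stimulated with the NOD1 agonist gamma-tri-DAP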
Setup Conditions: NOD1-driven NF-kB luciferase reporter cells, at 4 µM
In all, about 290,000 compounds went through this assay and about 3,000 (1%) were called active. Rule as the data show it: active = inhibition mostly above about 36% (no sharp cut-off); inactive = mostly below about 34%. The full list was thinned out, with actives kept by preference.
Return exactly one item of true (active), false (inactive)

Use these answered entries as a reference point.
{"Compound": "CCN1CCN(Cc2ccc(NC(=O)c3ccc(C)c(NC(=O)c4ccc5n[nH]nc5c4)c3)cc2C(F)(F)F)CC1", "Qualitative Label": "false"}
{"Compound": "CCN1CCN(Cc2ccc(NC(=O)c3cc(NC(=O)C(=O)c4c[nH]c5ccccc45)cc(OC)c3)cc2C(F)(F)F)CC1", "Qualitative Label": "false"}
{"Compound": "CCN1CCN(Cc2ccc(NC(=O)c3ccc(C)c(NC(=O)c4cc(-c5ccc(Br)cc5)n[nH]4)c3)cc2C(F)(F)F)CC1", "Qualitative Label": "false"}
{"Compound": "O=c1c(/C=N\\NS(=O)(=O)c2ccccc2)coc2ccc(Cl)cc12", "Qualitative Label": "true"}
{"Compound": "CCOC(=O)c1c(-c2ccc(C)o2)csc1NC(=S)NC(=O)N(C)C", "Qualitative Label": "true"}
{"Compound": "CCN1CCN(Cc2ccc(NC(=O)c3ccc(C)c(NC(=O)c4nccn4C)c3)cc2C(F)(F)F)CC1", "Qualitative Label": "false"}

Task item: Which outcome was entered for the compound c1cc2[nH]snc2c2nc(C3CC3)nc12 in this test?
Reply: true

Task item: Record request — test call for CCC(Sc1nc2cc(OC)c(OC)cc2c(=O)n1Cc1ccc(OC)cc1)C(=O)NCCOC (centres undefined)
Reply: false

Task item: I would be grateful if you could indicate the recorded call for N#Cc1c(NC(=O)c2ccccc2)sc2c1CCC2 .
Reply: false

----------
Test Summary: NOD1 signaling inhibitors, primary screen, cell-based, luminescence, uHTS (AID 1578);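 also: HEK-293T reporter cells stimulated with the NOD1 agonist gamma-tri-DAP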
Setup Conditions: NOD1-driven NF-kB luciferase reporter cells, at 4 µM, hits give high values
Out of some 290,000 compounds screened, about 3,000 (1%) were called active. For the sample, actives were picked, then their nearest neighbours and some compounds at random.
Assay Metric: inhibition (%)
Give your result in % as a bare value.

{"Compound": "Cc1ccc(O)c(Nc2c3ccccc3nc3ccccc23)c1", "Meas Value": 12.5}

The recorded inhibition for CCN(CC)Cc1c(O)ccc2c([N+](=O)[O-])c(C)n(-c3ccc(OC)cc3)c12 is -5.7

According to the records, this compound CNc1ccccc1C(C)(C)c1cc(-c2cccc(Br)c2)no1 displays inhibition of 18.9

----------
Test Summary: NOD1 signaling inhibitors, primary screen, cell-based, luminescence, uHTS (AID 1578);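 also: HEK-293T reporter cells stimulated with the NOD1 agonist gamma-tri-DAP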
Setup Conditions: NOD1-driven NF-kB luciferase reporter cells, at 4 µM
Hit rate of the full screen: of about 290,000 compounds, about 3,000 (1%) were called active. Rule as the data show it: active = inhibition mostly above about 36% (no sharp cut-off); inactive = mostly below about 34%. The sample holds actives, similar compounds and a random draw of the others, so the mix is not that of the screen.
Your reply should match one of these outcome classes. YES (active), NO (inactive)

Examples with answers:
{"Compound": "Cc1ccc(C)c(C(C)NC(=S)NCc2ccc(F)cc2)c1 (stereo unspecified)", "Qualitative Label": "YES"}
{"Compound": "CC(Oc1ccc(Cl)cc1Cl)c1nc(-c2ccc(NC(=O)c3ccco3)cc2)no1 (stereo unspecified)", "Qualitative Label": "NO"}
{"Compound": "Cc1ccc2c(N)c(C)ccc2c1", "Qualitative Label": "NO"}
{"Compound": "Cc1ccc(C(C)NC(=S)NCc2ccc(F)cc2)c(C)c1 (stereo unspecified)", "Qualitative Label": "NO"}

Task item: Test call for this compound, please: O=[N+]([O-])c1ccc(Sc2cccc[n+]2[O-])c2nonc12
Reply: YES

Task item: Answer briefly: the call reported for CC(C)C(=O)Nc1ccc(NC(=O)c2ccccc2Cl)nc1 in this assay.
Reply: NO

----------
Test Summary: NOD1 signaling inhibitors, primary screen, cell-based, luminescence, uHTS (AID 1578);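 also: HEK-293T reporter cells stimulated with the NOD1 agonist gamma-tri-DAP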
Setup Conditions: NOD1-driven NF-kB luciferase reporter cells, at 4 µM, hits give high values
The campaign covered roughly 290,000 compounds. About 3,000 (1%) were called active. Only a selection was taken, and actives are over-represented in it overall.
Assay Metric: inhibition (%)
I only need the number, in %, no unit after it.

{"Compound": "COc1ccc(NC(=O)C(=O)NCCN2CCN(C(=O)c3ccc(C)cc3)CC2)cc1", "Assay Metric": "inhibition", "Value Unit": "%", "Meas Value": -23}

inhibition reported for this compound COc1ccc(C(=O)C2CCN(CC(=O)Nc3ccc(OC)cc3OC)CC2)cc1 : -10.7

So, CCC(C)(C)c1ccc(OCCCC[n+]2ccc(C)cc2)c(C(C)(C)CC)c1 ? Its inhibition was 43.7

Entry CCC(C)(C)c1ccc(OCC(=O)N(C)C)c(C(C)(C)CC)c1 , inhibition reported as 26.1

Reported inhibition of COc1ccc(NC(=O)CCC(=O)N/N=C/c2cn(C)nc2C)cc1 : 10.7

inhibition recorded for this compound, CC1(C)CN(c2cccc(Br)c2)C1=O , is -15.6

Value of measured inhibition for the entry Cc1ccc(S(=O)(=O)c2cc3c(=O)n4ccccc4nc3n(C)c2=N)cc1C : -7.1

----------
Test Summary: NOD1 signaling inhibitors, primary screen, cell-based, luminescence, uHTS (AID 1578);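 also: HEK-293T reporter cells stimulated with the NOD1 agonist gamma-tri-DAP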
Setup Conditions: NOD1-driven NF-kB luciferase reporter cells, at 4 µM, hits give high values
The campaign covered roughly 290,000 compounds. About 3,000 (1%) were called active. The sample as a whole holds a higher share of actives than the screen did.
Reported inhibition is given for each of the following molecules.
Hi! Could you send only the number? It should be in %, unit omitted.

Here's what some known entries look like.
{"Molecule": "COc1ccc2c(c1)C(=O)C(=O)N2CC1COc2ccccc2O1 (stereo unspecified)", "Value Unit": "%", "inhibition": -10}
{"Molecule": "CC(=O)N1CCN(c2ccccc2NC(=O)c2ccc(C#N)cc2F)CC1", "Value Unit": "%", "inhibition": 2.6}
{"Molecule": "Cc1cc(=O)oc2c(C)c(OCC(=O)NCCCn3ccnc3)ccc12", "Value Unit": "%", "inhibition": 1.8}
{"Molecule": "O=C(CCl)N(c1ccccc1)C1CCCCC1", "Value Unit": "%", "inhibition": 34.4}
{"Molecule": "Cc1ccc(S(=O)(=O)NC(CC(=O)O)c2cccs2)cc1 (stereo unspecified)", "Value Unit": "%", "inhibition": -21.8}

get_value(item= O=C(Cc1ccccc1F)Nc1nc(-c2cccnc2)cs1 , readout=inhibition) returns -9.2

Quick note, inhibition for CCOC1(OCC)N=C(N)C2(C#N)C(c3ccc(NC(C)=O)cc3)C12C#N (stereo unspecified) landed at -12.4

Field inhibition (entry O=C(/C=C/c1cccc(C(F)(F)F)c1)Nc1cccc(C(F)(F)F)c1 ) reads 75.5
